Molecular target: AXL (Homo sapiens, UniProt P30530)
Construct: Nanosyn (contract laboratory that ran the panel)
Sequence (P30530 26-894): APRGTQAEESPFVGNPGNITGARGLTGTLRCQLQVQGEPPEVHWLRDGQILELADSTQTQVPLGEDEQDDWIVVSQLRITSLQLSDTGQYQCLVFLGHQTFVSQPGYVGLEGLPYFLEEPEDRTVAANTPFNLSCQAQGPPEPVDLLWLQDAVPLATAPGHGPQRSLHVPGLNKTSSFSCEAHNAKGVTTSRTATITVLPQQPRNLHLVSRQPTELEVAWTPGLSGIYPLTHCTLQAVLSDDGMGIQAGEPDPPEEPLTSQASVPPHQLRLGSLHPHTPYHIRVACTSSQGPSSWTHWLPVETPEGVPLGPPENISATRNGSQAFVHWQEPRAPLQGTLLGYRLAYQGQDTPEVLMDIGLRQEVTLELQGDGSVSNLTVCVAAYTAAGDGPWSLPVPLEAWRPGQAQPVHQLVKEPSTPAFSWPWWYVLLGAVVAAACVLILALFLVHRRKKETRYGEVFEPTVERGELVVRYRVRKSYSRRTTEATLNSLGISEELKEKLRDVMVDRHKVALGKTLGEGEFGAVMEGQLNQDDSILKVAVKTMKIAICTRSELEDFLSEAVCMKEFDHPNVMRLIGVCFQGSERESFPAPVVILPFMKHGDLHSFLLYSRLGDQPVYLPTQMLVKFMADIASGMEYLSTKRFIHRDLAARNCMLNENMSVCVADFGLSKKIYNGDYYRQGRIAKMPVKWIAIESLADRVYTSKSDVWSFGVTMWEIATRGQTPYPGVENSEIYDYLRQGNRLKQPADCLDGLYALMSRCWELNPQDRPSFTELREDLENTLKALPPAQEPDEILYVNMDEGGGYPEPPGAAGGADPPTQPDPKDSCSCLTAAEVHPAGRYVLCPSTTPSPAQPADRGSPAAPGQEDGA
Assay: Kinase panel enzymatic inhibition assay (Nanosyn)
Type: biochemical
Details: ATP at Km; 30-minute pre-incubation; read-out: kinase inhibition in terms of IC50, AXL
Overview of reported IC50 across a group of compounds:

COc1cc2nccc(Oc3ccc(NC(=O)c4cc(S(C)(=O)=O)n(-c5ccc(F)cc5)n4)cc3F)c2cc1OC ... < 500 nM

Now for a further compound.
Report IC50 for COc1cc2nccc(Oc3ccc(NC(=O)c4cc(S(C)(=O)=O)n(-c5ccc(F)cc5)n4)c(F)c3)c2cc1OC please.
< 500 nM

###

Molecular target: KIT (Homo sapiens, UniProt P10721)
Construct: purchased Nanosyn (contract screening)
Sequence (P10721 26-976): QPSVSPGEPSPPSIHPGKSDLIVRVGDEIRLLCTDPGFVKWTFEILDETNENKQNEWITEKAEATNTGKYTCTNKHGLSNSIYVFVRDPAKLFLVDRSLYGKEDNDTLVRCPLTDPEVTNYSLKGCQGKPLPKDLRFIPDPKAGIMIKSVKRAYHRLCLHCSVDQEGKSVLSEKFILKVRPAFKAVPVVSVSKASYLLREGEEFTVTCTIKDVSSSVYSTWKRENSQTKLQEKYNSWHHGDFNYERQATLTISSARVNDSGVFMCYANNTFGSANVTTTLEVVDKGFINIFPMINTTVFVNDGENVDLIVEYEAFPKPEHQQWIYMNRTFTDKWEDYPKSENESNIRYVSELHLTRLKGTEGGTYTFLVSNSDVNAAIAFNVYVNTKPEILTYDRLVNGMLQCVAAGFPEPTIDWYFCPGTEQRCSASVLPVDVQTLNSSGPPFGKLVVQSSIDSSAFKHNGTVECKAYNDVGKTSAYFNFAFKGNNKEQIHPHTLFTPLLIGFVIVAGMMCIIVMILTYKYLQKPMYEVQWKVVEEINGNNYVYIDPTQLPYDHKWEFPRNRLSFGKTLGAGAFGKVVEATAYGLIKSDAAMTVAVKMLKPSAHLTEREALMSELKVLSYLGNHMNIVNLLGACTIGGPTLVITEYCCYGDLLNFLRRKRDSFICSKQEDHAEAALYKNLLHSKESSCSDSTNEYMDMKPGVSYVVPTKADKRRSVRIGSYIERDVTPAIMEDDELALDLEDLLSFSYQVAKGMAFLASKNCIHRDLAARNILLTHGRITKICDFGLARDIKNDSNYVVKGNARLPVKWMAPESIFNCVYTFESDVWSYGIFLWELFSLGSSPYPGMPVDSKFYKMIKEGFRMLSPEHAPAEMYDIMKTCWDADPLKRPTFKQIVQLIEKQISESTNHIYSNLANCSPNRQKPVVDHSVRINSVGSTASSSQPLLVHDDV
Assay: Kinase panel enzymatic inhibition assay (Nanosyn)
Assay type: biochemical
Conditions: compound 5 μM; ATP at Km; 30-minute pre-incubation
measurement label: inhibition at 5 µM

Known results for compounds:
Cc1ccc(NC(=O)c2cc(S(C)(=O)=O)n(-c3ccc(F)cc3)n2)cc1Nc1ccc2ncn(C)c(=O)c2c1 [Ex4] ... 90 to 94%
Cc1ccc(NC(=O)c2cc([S+](C)[O-])n(-c3ccc(F)cc3)n2)cc1C#Cc1cnc2cccnn12 (stereo not shown) [Ex6] ... 90 to 94%
Cc1ccc(NC(=O)c2cc([S+](C)[O-])n(-c3ccc(F)cc3)n2)cc1-c1cc(OCCO)nc(N2CCOCC2)c1 (stereo not shown) [Ex10] ... < 79%
CSc1cc(C(=O)Nc2cc(Oc3ccnc(C(=O)NC4CNC4)c3)ccc2F)nn1-c1ccc(F)cc1 [Ex8] ... < 79%
Cc1ccc(NC(=O)c2cc(S(C)(=O)=O)n(-c3ccc(F)cc3)n2)cc1C#Cc1cnc2cccnn12 [Ex14] ... 90 to 94%

Report inhibition at 5 µM for CCOC(=O)Nc1cn2nc(Nc3cc(NC(=O)c4cc(S(C)(=O)=O)n(-c5ccc(F)cc5)n4)ccc3C)ccc2n1 [Ex15] please.
≥ 95%

Quick one: Cc1ccc(NC(=O)c2cc([S+](C)[O-])n(-c3ccc(F)cc3)n2)cc1Nc1ccc2ncn(C)c(=O)c2c1 (stereo not shown) [Ex5]
80 to 89%

###

Target: FYN (Homo sapiens)
Construct: purchased Nanosyn (contract screening)
Sequence (P06241 whole entry): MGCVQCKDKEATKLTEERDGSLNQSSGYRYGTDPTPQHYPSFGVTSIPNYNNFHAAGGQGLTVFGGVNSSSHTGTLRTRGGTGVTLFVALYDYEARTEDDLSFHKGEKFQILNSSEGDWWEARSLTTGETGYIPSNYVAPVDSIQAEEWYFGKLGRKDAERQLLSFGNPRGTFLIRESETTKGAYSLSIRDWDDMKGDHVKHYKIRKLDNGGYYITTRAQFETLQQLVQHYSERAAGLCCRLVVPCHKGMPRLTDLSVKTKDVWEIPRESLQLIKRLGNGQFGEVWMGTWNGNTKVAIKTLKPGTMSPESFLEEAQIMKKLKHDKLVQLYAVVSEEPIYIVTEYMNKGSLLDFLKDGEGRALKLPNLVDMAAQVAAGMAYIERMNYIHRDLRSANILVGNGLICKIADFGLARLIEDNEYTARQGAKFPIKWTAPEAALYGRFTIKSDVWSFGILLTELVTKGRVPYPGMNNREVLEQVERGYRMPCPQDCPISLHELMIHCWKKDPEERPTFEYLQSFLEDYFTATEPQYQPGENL
Assay: Kinase panel enzymatic inhibition assay (Nanosyn)
Type: biochemical
Settings: compound 5 μM; ATP at Km; 30-minute pre-incubation
measurement label: inhibition at 5 µM

Known results for compounds:
CSc1cc(C(=O)Nc2cc(Oc3ccnc(C(=O)NC4CNC4)c3)ccc2F)nn1-c1ccc(F)cc1 ... < 79%
CCOC(=O)Nc1cn2nc(Nc3cc(NC(=O)c4cc([S+](C)[O-])n(-c5ccc(F)cc5)n4)ccc3C)ccc2n1 (stereo not shown) ... ≥ 95%
Cc1ccc(NC(=O)c2cc(S(C)(=O)=O)n(-c3ccc(F)cc3)n2)cc1-c1cc(OCCO)nc(N2CCOCC2)c1 ... < 79%

Now for a further compound.
Which measured inhibition at 5 µM belongs to CCOC(=O)Nc1cn2nc(Nc3cc(NC(=O)c4cc(S(C)(=O)=O)n(-c5ccc(F)cc5)n4)ccc3C)ccc2n1 , tested on FYN (Homo sapiens)?
≥ 95%

###

Molecular target: CSF1R (Homo sapiens, UniProt P07333)
Construct: purchased Nanosyn (contract screening)
Sequence (P07333 20-972): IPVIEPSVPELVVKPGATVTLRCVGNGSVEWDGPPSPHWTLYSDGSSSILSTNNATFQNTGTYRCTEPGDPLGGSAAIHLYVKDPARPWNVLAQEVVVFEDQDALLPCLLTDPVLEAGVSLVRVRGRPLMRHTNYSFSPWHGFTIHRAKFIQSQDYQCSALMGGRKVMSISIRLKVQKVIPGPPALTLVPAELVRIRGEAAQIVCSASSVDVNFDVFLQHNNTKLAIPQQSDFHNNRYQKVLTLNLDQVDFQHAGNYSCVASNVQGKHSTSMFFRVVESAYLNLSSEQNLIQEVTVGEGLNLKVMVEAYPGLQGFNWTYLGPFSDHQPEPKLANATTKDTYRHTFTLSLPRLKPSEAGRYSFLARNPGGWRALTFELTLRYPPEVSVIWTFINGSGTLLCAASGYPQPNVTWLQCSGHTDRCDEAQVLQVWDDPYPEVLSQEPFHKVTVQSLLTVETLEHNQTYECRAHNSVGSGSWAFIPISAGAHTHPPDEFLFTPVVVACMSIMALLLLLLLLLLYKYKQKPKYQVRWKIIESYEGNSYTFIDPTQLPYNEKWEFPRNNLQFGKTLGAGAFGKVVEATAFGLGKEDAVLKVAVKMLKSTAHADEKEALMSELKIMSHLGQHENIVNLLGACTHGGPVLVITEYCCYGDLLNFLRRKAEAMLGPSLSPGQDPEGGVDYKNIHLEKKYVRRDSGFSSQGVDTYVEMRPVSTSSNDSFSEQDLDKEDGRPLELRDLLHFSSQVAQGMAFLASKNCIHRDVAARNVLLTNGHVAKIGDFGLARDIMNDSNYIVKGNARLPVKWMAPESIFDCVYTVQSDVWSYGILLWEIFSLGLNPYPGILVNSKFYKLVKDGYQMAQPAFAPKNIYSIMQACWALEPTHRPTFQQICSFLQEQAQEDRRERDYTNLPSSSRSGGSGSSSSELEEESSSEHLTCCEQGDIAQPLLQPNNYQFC
Experiment: Kinase panel enzymatic inhibition assay (Nanosyn)
Format: biochemical
Conditions: compound 5 μM; ATP at Km; 30-minute pre-incubation
Overview of reported inhibition at 5 µM across a group of compounds:

CNC(=O)c1cc(Oc2ccc(F)c(NC(=O)c3cc([S+](C)[O-])n(-c4ccc(F)cc4)n3)c2)ccn1 (stereo not shown) [Ex7] ... < 79%
CNC(=O)c1cc(Oc2ccc(NC(=O)c3cc(S(C)(=O)=O)n(-c4ccc(F)cc4)n3)c(F)c2)ccn1 [Ex17] ... < 79%
Cc1ccc(NC(=O)c2cc(S(C)(=O)=O)n(-c3ccc(F)cc3)n2)cc1Nc1nccc(-c2cccnc2N)n1 [Ex13] ... ≥ 95%

Now for a further compound.
Report inhibition at 5 µM for CCOC(=O)Nc1cn2nc(Nc3cc(NC(=O)c4cc(S(C)(=O)=O)n(-c5ccc(F)cc5)n4)ccc3C)ccc2n1 [Ex15] please.
≥ 95%

###

Target: RET (Homo sapiens, UniProt P07949)
Construct: Nanosyn (contract laboratory that ran the panel)
Sequence (P07949 29-1114): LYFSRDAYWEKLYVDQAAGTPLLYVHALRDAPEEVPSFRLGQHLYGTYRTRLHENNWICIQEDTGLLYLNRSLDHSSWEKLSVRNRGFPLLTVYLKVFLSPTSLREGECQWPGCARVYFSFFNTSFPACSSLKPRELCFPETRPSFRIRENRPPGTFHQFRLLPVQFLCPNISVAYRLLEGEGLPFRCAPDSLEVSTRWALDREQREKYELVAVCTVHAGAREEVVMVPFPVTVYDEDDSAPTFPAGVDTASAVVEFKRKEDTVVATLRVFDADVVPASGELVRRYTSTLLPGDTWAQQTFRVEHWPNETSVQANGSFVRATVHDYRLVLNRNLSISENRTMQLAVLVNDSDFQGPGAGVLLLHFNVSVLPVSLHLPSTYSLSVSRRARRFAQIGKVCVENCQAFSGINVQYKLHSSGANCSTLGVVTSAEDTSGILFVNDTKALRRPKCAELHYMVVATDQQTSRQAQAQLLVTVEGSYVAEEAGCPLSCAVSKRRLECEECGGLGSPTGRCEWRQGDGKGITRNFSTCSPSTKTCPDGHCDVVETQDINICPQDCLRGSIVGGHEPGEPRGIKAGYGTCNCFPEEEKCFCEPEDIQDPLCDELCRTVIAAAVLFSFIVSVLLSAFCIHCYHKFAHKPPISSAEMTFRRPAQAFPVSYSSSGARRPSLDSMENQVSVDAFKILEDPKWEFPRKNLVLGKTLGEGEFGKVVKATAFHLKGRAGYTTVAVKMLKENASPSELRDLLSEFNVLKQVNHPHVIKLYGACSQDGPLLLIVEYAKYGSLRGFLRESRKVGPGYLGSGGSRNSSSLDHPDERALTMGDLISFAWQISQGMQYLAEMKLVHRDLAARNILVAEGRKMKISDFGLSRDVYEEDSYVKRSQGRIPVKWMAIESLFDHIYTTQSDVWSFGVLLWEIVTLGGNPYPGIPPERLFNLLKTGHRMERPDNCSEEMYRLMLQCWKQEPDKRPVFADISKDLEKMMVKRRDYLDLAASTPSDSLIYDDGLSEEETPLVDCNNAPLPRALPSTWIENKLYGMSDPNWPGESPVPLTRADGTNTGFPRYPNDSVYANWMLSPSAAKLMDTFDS
Assay: Kinase panel enzymatic inhibition assay (Nanosyn)
Type: biochemical
Conditions: compound 5 μM; ATP at Km; 30-minute pre-incubation
measurement label: inhibition at 5 µM

Known results for molecules:
CNC(=O)c1cc(Oc2ccc(NC(=O)c3cc(S(C)(=O)=O)n(-c4ccc(F)cc4)n3)c(F)c2)ccn1 ... < 79%
Cc1ccc(NC(=O)c2cc(S(C)(=O)=O)n(-c3ccc(F)cc3)n2)cc1-c1cc(OCCO)nc(N2CCOCC2)c1 ... < 79%
CNC(=O)c1cc(Oc2ccc(F)c(NC(=O)c3cc([S+](C)[O-])n(-c4ccc(F)cc4)n3)c2)ccn1 (centres unmarked) ... < 79%
CCOC(=O)Nc1cn2nc(Nc3cc(NC(=O)c4cc([S+](C)[O-])n(-c5ccc(F)cc5)n4)ccc3C)ccc2n1 (centres unmarked) ... 80 to 89%
Cc1ccc(NC(=O)c2cc([S+](C)[O-])n(-c3ccc(F)cc3)n2)cc1-c1cc(N2CCOCC2)c(=O)n(C)c1 (centres unmarked) ... < 79%
Cc1ccc(NC(=O)c2cc([S+](C)[O-])n(-c3ccc(F)cc3)n2)cc1-c1cc(OCCO)nc(N2CCOCC2)c1 (centres unmarked) ... < 79%
CCOC(=O)Nc1cn2nc(Nc3cc(NC(=O)c4cc(S(C)(=O)=O)n(-c5ccc(F)cc5)n4)ccc3C)ccc2n1 ... ≥ 95%
Cc1ccc(NC(=O)c2cc(S(C)(=O)=O)n(-c3ccc(F)cc3)n2)cc1Nc1nccc(-c2cccnc2N)n1 ... < 79%
Cc1ccc(NC(=O)c2cc(S(C)(=O)=O)n(-c3ccc(F)cc3)n2)cc1Nc1ccc2ncn(C)c(=O)c2c1 ... 90 to 94%
Cc1ccc(NC(=O)c2cc(S(C)(=O)=O)n(-c3ccc(F)cc3)n2)cc1C#Cc1cnc2cccnn12 ... 80 to 89%

Report inhibition at 5 µM for CSc1cc(C(=O)Nc2cc(Oc3ccnc(C(=O)NC4CNC4)c3)ccc2F)nn1-c1ccc(F)cc1 please.
< 79%

Quick one: Cc1ccc(NC(=O)c2cc([S+](C)[O-])n(-c3ccc(F)cc3)n2)cc1Nc1ccc2ncn(C)c(=O)c2c1 (centres unmarked)
< 79%

Quick one: Cc1ccc(NC(=O)c2cc([S+](C)[O-])n(-c3ccc(F)cc3)n2)cc1C#Cc1cnc2cccnn12 (centres unmarked)
90 to 94%

Quick one: Cc1ccc(NC(=O)c2cc(S(C)(=O)=O)n(-c3ccc(F)cc3)n2)cc1-c1cc(N2CCOCC2)c(=O)n(C)c1
< 79%

###

Overview of reported inhibition at 5 µM across a group of molecules:
Target: BLK (Homo sapiens)
Construct: purchased Nanosyn (contract screening)
Sequence (P51451 whole entry): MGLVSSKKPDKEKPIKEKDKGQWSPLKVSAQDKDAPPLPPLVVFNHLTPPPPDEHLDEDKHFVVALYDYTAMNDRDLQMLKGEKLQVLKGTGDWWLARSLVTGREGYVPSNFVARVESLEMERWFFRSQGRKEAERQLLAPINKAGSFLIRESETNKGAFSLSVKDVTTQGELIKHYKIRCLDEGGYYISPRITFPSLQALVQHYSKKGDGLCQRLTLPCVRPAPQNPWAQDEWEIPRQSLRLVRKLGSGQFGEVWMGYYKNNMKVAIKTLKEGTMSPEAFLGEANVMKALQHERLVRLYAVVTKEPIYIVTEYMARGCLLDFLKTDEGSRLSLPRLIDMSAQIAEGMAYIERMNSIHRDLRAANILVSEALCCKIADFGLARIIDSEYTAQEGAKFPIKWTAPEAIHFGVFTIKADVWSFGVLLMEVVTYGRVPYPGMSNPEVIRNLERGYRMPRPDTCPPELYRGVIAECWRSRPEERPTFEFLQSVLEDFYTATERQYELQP
Experiment: Kinase panel enzymatic inhibition assay (Nanosyn)
Assay type: biochemical
Settings: compound 5 μM; ATP at Km; 30-minute pre-incubation

Cc1ccc(NC(=O)c2cc([S+](C)[O-])n(-c3ccc(F)cc3)n2)cc1Nc1ccc2ncn(C)c(=O)c2c1 (stereo not shown) [Ex5] ... < 79%

Report inhibition at 5 µM for Cc1ccc(NC(=O)c2cc(S(C)(=O)=O)n(-c3ccc(F)cc3)n2)cc1-c1cc(OCCO)nc(N2CCOCC2)c1 [Ex9] please.
< 79%

Quick one: Cc1ccc(NC(=O)c2cc([S+](C)[O-])n(-c3ccc(F)cc3)n2)cc1-c1cc(OCCO)nc(N2CCOCC2)c1 (stereo not shown) [Ex10]
< 79%

Quick one: Cc1ccc(NC(=O)c2cc(S(C)(=O)=O)n(-c3ccc(F)cc3)n2)cc1C#Cc1cnc2cccnn12 [Ex14]
80 to 89%

###

Overview of reported inhibition at 5 µM across a group of molecules:
Target: PDGFRa (Homo sapiens)
Construct: Nanosyn (contract laboratory that ran the panel)
Assay: Kinase panel enzymatic inhibition assay (Nanosyn)
Type: biochemical
Details: compound 5 μM; ATP at Km; 30-minute pre-incubation

Known results for molecules:
CNC(=O)c1cc(Oc2ccc(F)c(NC(=O)c3cc([S+](C)[O-])n(-c4ccc(F)cc4)n3)c2)ccn1 (stereo not shown) [Ex7] ... < 79%
CCOC(=O)Nc1cn2nc(Nc3cc(NC(=O)c4cc([S+](C)[O-])n(-c5ccc(F)cc5)n4)ccc3C)ccc2n1 (stereo not shown) [Ex18] ... 90 to 94%
Cc1ccc(NC(=O)c2cc(S(C)(=O)=O)n(-c3ccc(F)cc3)n2)cc1Nc1nccc(-c2cccnc2N)n1 [Ex13] ... ≥ 95%
Cc1ccc(NC(=O)c2cc(S(C)(=O)=O)n(-c3ccc(F)cc3)n2)cc1-c1cc(OCCO)nc(N2CCOCC2)c1 [Ex9] ... < 79%
CNC(=O)c1cc(Oc2ccc(NC(=O)c3cc(S(C)(=O)=O)n(-c4ccc(F)cc4)n3)c(F)c2)ccn1 [Ex17] ... < 79%

Report inhibition at 5 µM for Cc1ccc(NC(=O)c2cc([S+](C)[O-])n(-c3ccc(F)cc3)n2)cc1Nc1ccc2ncn(C)c(=O)c2c1 (stereo not shown) [Ex5] please.
< 79%

Quick one: Cc1ccc(NC(=O)c2cc(S(C)(=O)=O)n(-c3ccc(F)cc3)n2)cc1-c1cc(N2CCOCC2)c(=O)n(C)c1 [Ex12]
< 79%
